// inhibition at 0.01 µM lookup, one value per entry
- assay-target: LRRK2 (Homo sapiens, UniProt Q5S007)
- Sequence (Q5S007 whole entry): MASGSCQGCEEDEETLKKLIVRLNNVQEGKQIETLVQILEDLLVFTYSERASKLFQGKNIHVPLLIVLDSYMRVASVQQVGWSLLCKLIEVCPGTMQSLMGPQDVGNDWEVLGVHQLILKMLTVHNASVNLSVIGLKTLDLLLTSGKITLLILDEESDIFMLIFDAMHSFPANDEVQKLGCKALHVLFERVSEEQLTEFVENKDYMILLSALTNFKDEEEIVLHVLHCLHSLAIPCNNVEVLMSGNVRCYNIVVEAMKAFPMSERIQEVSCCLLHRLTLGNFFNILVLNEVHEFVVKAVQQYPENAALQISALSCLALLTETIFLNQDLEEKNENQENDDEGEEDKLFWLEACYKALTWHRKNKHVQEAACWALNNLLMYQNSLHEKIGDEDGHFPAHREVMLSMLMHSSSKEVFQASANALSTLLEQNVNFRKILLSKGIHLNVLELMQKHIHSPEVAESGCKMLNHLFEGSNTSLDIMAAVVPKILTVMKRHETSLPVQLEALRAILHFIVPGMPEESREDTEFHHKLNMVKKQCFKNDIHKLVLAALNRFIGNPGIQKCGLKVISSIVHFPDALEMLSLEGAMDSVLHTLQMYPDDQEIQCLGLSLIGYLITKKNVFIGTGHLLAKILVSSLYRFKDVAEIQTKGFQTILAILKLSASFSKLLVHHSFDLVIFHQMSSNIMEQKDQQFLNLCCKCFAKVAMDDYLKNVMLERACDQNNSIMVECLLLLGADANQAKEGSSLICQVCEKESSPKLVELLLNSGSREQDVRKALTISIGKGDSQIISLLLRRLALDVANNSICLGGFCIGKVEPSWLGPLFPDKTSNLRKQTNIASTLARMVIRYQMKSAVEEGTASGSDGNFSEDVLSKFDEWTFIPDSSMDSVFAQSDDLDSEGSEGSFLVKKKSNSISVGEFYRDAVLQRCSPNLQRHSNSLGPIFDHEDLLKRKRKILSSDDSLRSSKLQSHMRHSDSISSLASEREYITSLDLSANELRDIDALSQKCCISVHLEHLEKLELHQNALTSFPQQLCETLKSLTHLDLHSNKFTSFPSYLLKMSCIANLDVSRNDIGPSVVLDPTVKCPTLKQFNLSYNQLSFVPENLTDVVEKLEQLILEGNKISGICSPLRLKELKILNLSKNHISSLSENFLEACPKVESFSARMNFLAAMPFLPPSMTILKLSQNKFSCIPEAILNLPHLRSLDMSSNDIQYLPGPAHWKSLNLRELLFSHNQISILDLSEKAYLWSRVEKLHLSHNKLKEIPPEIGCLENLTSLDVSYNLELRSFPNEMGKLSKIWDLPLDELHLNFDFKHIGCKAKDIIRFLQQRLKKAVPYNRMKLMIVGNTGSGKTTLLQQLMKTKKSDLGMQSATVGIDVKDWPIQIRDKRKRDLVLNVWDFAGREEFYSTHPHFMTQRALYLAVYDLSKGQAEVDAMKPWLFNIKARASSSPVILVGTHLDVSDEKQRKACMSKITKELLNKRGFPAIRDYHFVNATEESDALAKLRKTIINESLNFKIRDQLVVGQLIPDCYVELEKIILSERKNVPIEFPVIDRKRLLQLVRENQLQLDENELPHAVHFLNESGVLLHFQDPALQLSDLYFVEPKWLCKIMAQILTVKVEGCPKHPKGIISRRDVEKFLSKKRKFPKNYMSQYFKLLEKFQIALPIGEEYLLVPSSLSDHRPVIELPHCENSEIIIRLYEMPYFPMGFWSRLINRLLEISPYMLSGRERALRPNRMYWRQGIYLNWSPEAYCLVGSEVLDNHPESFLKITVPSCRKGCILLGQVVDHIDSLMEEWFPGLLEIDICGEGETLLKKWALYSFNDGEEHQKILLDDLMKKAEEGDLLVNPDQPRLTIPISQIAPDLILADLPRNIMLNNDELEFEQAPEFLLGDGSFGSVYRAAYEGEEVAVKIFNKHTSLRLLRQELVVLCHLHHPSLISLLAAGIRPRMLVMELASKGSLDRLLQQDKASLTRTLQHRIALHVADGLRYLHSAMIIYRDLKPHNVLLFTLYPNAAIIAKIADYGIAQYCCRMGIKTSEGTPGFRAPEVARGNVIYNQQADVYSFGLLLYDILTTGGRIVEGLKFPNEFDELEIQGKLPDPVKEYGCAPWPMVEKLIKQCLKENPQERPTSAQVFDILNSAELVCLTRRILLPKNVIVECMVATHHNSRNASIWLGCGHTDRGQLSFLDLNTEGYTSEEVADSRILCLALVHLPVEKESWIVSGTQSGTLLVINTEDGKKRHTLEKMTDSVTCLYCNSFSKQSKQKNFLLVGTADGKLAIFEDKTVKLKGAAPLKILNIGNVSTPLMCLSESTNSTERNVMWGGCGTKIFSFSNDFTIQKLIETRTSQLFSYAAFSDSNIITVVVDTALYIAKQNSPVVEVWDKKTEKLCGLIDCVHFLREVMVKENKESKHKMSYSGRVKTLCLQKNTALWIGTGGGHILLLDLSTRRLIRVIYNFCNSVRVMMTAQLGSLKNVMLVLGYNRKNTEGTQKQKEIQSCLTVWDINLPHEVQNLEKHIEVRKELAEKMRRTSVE
- method: experiment of inhibiting kinase activity, LRRK2
- Format: biochemical
- condition-description: at 10 nM; read-out: inhibition rate LRRK2

Some solved entries appear below for comparison.
- molecule: "CN1CCOCCOc2cc(Nc3nc(Nc4ccccc4NS(C)(=O)=O)c4cc[nH]c4n3)ccc2OCC1 [Example 61]"
  inhibition at 0.01 µM: "> 80%"
- molecule: "CN1CCOc2ccc(Nc3nc(Nc4ccccc4P(C)(C)=O)c4cc[nH]c4n3)cc2OCC1 [Example 73]"
  inhibition at 0.01 µM: "> 80%"
- molecule: "CC(C)S(=O)(=O)c1ccccc1Nc1nc(Nc2ccc3c(c2)OCCOCCN(C)CCO3)nc2[nH]cnc12 [Example 60]"
  inhibition at 0.01 µM: "40 to 79%"

Now examine the next entry.
Any idea what its inhibition at 0.01 µM is? The molecule is CC(C)S(=O)(=O)c1ccccc1Nc1nc(Nc2ccc3c(c2)OCCN(C)CCO3)ncc1C(F)(F)F [Example 82]
> 80%

---

// inhibition at 0.1 µM lookup, one value per entry
- assay-target: JAK3 (Homo sapiens)
- Sequence (P52333 whole entry): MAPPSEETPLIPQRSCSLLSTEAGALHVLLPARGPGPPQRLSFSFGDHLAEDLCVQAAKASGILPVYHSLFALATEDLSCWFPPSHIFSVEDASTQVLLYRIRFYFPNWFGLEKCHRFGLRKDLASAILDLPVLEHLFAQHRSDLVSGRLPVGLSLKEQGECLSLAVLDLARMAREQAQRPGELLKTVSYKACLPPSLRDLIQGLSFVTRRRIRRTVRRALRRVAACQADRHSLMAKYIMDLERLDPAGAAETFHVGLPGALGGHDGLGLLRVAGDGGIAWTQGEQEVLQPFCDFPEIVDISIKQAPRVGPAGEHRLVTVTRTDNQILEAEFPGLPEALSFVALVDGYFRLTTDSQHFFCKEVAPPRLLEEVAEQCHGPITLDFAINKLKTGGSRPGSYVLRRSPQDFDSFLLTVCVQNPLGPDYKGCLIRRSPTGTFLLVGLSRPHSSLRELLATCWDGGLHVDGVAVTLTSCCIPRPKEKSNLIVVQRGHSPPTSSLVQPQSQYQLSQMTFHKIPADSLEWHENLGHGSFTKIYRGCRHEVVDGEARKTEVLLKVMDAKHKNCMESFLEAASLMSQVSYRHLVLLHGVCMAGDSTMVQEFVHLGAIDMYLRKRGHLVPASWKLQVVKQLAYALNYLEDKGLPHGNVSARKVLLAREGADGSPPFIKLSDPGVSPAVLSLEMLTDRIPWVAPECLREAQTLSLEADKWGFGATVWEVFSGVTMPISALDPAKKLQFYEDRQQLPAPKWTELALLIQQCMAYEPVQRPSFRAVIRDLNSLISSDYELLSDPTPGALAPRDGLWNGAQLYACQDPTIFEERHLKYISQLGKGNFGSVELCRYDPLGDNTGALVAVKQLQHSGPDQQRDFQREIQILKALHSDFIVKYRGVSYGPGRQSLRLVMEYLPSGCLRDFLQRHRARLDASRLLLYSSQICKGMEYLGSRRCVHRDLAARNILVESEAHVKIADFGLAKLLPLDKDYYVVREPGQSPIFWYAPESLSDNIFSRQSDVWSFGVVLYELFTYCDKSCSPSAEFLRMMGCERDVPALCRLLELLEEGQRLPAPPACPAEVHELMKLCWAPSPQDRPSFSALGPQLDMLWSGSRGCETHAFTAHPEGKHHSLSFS
- method: experiment of inhibiting kinase activity (Caliper mobility shift assay), JAK3
- Assay type: biochemical
- condition-description: at 100 nM; read-out: inhibition rate JAK3

- molecule: "CC(C)S(=O)(=O)c1ccccc1Nc1nc(Nc2ccc3c(c2)OCCN(C)CCOCCO3)nc2[nH]ncc12"
  reported: "25 to 39%"
- molecule: "CCS(=O)(=O)N1CC(CC#N)(n2cc(-c3nc(Nc4ccc5c(c4)OCCN(C)CCO5)ncc3F)cn2)C1"
  reported: "> 80%"
- molecule: "CC(C)S(=O)(=O)c1ccccc1Nc1nc(Nc2ccc3c(c2)OCCOCCN(C)CCO3)nc2[nH]cnc12"
  reported: "> 80%"

Any idea what its inhibition at 0.1 µM is? The molecule is `CC(C)S(=O)(=O)c1ccccc1Nc1nc(Nc2ccc3c(c2)OCCN(C)CCO3)nc2[nH]ccc12`
> 80%

Cool, now `CN1CCOCCOc2cc(Nc3nc(Nc4ccccc4P(C)(C)=O)c4cn[nH]c4n3)ccc2OCC1`
> 80%

Cool, now `CN1CCOCCOc2cc(Nc3ncc(F)c(-c4ccc(C(=O)NCC#N)cc4)n3)ccc2OCC1`
> 80%

Cool, now `CN1CCOCCOc2cc(Nc3ncc(F)c(Nc4cccc(S(=O)(=O)NC(C)(C)C)c4)n3)ccc2OCC1`
40 to 79%

Cool, now CN1CCOCCOc2cc(Nc3nc(-c4cnn(C(CC#N)C5CCCC5)c4)c4cc[nH]c4n3)ccc2OCC1 (stereo not drawn)
> 80%

Cool, now `CN1CCOCCOc2ccc(Nc3ncc(F)c(-c4ccc(C(=O)NCC#N)cc4)n3)cc2OCC1`
40 to 79%

Cool, now `CN1CCOCCOc2cc(Nc3nc(Nc4ccccc4P(C)(C)=O)c4cc[nH]c4n3)ccc2OCC1`
> 80%

Cool, now CN1CCOc2ccc(Nc3ncc(F)c(-c4cnn(C(CC#N)C5CCCC5)c4)n3)cc2OCC1 (stereo not drawn)
40 to 79%

Cool, now `CC(C)S(=O)(=O)c1ccccc1Nc1nc(Nc2ccc3c(c2)OCCOCCN(S(C)(=O)=O)CCO3)nc2[nH]ccc12`
> 80%

Cool, now `CN1CCOCCOc2cc(Nc3nc(Nc4cccc(S(N)(=O)=O)c4)c4cc[nH]c4n3)ccc2OCC1`
25 to 39%

---

// EC50 lookup, one value per entry
- assay-target: JAK1 (Homo sapiens, UniProt P23458)
- Sequence (P23458 whole entry): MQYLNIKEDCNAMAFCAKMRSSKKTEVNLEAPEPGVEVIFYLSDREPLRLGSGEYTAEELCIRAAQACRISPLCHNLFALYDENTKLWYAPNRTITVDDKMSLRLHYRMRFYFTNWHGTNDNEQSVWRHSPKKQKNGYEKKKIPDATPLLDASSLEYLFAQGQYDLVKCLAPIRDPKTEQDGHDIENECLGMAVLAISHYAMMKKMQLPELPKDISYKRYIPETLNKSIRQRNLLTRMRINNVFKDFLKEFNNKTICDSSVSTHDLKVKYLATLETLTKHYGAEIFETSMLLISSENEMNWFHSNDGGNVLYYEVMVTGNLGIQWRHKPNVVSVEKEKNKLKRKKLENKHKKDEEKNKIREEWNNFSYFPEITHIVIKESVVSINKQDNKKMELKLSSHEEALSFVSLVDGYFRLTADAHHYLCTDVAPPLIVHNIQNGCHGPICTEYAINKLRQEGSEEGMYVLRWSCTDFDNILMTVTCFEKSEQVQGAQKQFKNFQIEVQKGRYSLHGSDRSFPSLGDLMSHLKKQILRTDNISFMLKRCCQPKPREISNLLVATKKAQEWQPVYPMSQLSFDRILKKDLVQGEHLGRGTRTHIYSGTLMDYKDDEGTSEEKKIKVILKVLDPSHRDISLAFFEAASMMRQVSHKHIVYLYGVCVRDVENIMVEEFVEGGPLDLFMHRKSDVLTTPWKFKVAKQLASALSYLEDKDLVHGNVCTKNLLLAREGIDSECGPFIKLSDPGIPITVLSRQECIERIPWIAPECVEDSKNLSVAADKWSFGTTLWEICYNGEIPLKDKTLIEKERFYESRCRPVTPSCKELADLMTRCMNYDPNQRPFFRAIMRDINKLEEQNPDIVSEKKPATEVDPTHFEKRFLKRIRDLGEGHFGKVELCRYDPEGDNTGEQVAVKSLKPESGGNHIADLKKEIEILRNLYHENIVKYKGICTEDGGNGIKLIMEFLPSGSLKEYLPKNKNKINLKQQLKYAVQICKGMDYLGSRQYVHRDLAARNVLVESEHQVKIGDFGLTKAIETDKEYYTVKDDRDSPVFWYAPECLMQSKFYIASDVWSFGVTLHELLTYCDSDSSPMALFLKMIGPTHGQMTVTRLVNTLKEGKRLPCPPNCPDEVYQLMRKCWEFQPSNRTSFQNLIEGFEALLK
- method: JAKs cell activity test: detection of pSTAT6 in THP1 cells induced by JAK1_IL-4
- condition-description: pSTAT6, IL-4-induced THP1 cells

Some solved entries appear below for comparison.
- compound: "CN1CCOCCOc2cc(Nc3ncc(F)c(-c4ccc(C(=O)NCC#N)cc4)n3)ccc2OCC1"
  assay-target: "JAK1 (Homo sapiens, UniProt P23458)"
  recorded-endpoint: "EC50"
  reported: "50 to 500 nM"
- compound: "CN1CCOc2ccc(Nc3nc(-c4ccc(C(=O)NCC#N)cc4)c4cc[nH]c4n3)cc2OCC1"
  assay-target: "JAK1 (Homo sapiens, UniProt P23458)"
  recorded-endpoint: "EC50"
  reported: "< 50 nM"
- compound: "CN1CCOCCOc2cc(Nc3nc(-c4cnn(C(CC#N)C5CCCC5)c4)c4cc[nH]c4n3)ccc2OCC1 (centres unmarked)"
  assay-target: "JAK1 (Homo sapiens, UniProt P23458)"
  recorded-endpoint: "EC50"
  reported: "< 50 nM"
- compound: "CN1CCOc2ccc(Nc3nc(-c4cnn(C(CC#N)C5CCCC5)c4)c4cc[nH]c4n3)cc2OCC1 (centres unmarked)"
  assay-target: "JAK1 (Homo sapiens, UniProt P23458)"
  recorded-endpoint: "EC50"
  reported: "< 50 nM"

Now examine the next entry.
Any idea what its EC50 is? The compound is `CCS(=O)(=O)N1CC(CC#N)(n2cc(-c3nc(Nc4ccc5c(c4)OCCN(C)CCO5)nc4[nH]ccc34)cn2)C1`
< 50 nM

---

- assay-target: UniProtKB Q5S007
- method: experiment of inhibiting kinase activity, LRRK2
- Format: biochemical
- condition-description: at 100 nM; read-out: inhibition rate LRRK2
// inhibition at 0.1 µM lookup, one value per entry

Some solved entries appear below for comparison.
- compound: "CNc1nc(Nc2ccc3c(c2)OCCN(C)CCO3)nc2[nH]ccc12 [Example 64]"
  inhibition at 0.1 µM: "> 80%"
- compound: "CN1CCOc2ccc(Nc3nc(-c4cn(C)c5ccccc45)c4cc[nH]c4n3)cc2OCC1 [Example 39]"
  inhibition at 0.1 µM: "40 to 79%"
- compound: "CN1CCOCCOc2cc(Nc3ncc(F)c(-c4ccc(C(=O)NCC#N)cc4)n3)ccc2OCC1 [Example 16]"
  inhibition at 0.1 µM: "40 to 79%"
- compound: "CCS(=O)(=O)N1CC(CC#N)(n2cc(-c3nc(Nc4ccc5c(c4)OCCN(C)CCO5)ncc3F)cn2)C1 [Example 37]"
  inhibition at 0.1 µM: "25 to 39%"
- compound: "CN1CCOCCOc2cc(Nc3nc(Nc4cccc(S(=O)(=O)NC(C)(C)C)c4)c4cc[nH]c4n3)ccc2OCC1 [Example 20]"
  inhibition at 0.1 µM: "40 to 79%"

Any idea what its inhibition at 0.1 µM is? The compound is CN1CCOCCOc2cc(Nc3nc(Nc4ccccc4P(C)(C)=O)c4cn[nH]c4n3)ccc2OCC1 [Example 33]
> 80%

---

- assay-target: TYK2 (Homo sapiens, UniProt P29597)
- method: experiment of inhibiting kinase activity, TYK2
- Type: biochemical
- condition-description: at 100 nM; read-out: inhibition rate TYK2
recorded-endpoint: inhibition at 0.1 µM

Some solved entries appear below for comparison.
- molecule: "Cc1nc2c(F)cc(-c3nc(Nc4ccc5c(c4)OCCOCCN(C)CCO5)nc4[nH]ccc34)cc2n1C(C)C"
  reported: "40 to 79%"
- molecule: "CN1CCOCCOc2cc(Nc3nc(-c4cnn(C(CC#N)C5CCCC5)c4)c4cc[nH]c4n3)ccc2OCC1 (stereo not shown)"
  reported: "> 80%"
- molecule: "CC(C)S(=O)(=O)c1ccccc1Nc1nc(Nc2ccc3c(c2)OCCOCCN(C)CCO3)nc2[nH]cnc12"
  reported: "40 to 79%"
- molecule: "CCS(=O)(=O)N1CC(CC#N)(n2cc(-c3nc(Nc4ccc5c(c4)OCCN(C)CCO5)nc4[nH]ccc34)cn2)C1"
  reported: "> 80%"
- molecule: "CN1CCOc2ccc(Nc3nc(-c4ccc(C(=O)NCC#N)cc4)c4cc[nH]c4n3)cc2OCC1"
  reported: "> 80%"

Any idea what its inhibition at 0.1 µM is? The molecule is `CN1CCOCCOc2ccc(Nc3ncc(F)c(Nc4cccc(S(=O)(=O)NC(C)(C)C)c4)n3)cc2OCC1`
40 to 79%

Cool, now `CN1CCOCCOc2cc(Nc3nc(Nc4ccccc4P(C)(C)=O)c4cc[nH]c4n3)ccc2OCC1`
40 to 79%

---

- method: measurement of the solubility of compounds in water and diluted hydrochloric acid
- Format: physicochemical
- condition-description: thermodynamic from solid; ultrapure water (pH-6), room temperature overnight
recorded-endpoint: solubility (µg/mL)

- structure-as-smiles: "CN1CCOCCOc2ccc(Nc3nc(O[C@H]4CC[C@@](C)(O)CC4)c4cc[nH]c4n3)cc2OCC1"
  reported: 368
- structure-as-smiles: "CN1CCOc2ccc(Nc3ncc(C(F)(F)F)c(NCCP(C)(C)=O)n3)cc2OCC1"
  reported: 688
- structure-as-smiles: "C=CC(=O)Nc1cccc(Nc2nc(Nc3ccc4c(c3)OCCOCCN(C)CCO4)ncc2Cl)c1"
  reported: 886
- structure-as-smiles: "CC(C)S(=O)(=O)c1ccccc1Nc1nc(Nc2ccc3c(c2)OCCOCCNCCO3)nc2[nH]ccc12"
  reported: 180

[I] CN1CCOCCOc2cc(Nc3nc(-c4cnn([C@@H](CC#N)C5CCCC5)c4)c4cc[nH]c4n3)ccc2OCC1
[II] CN1CCOCCOc2ccc(Nc3ncc(C(F)(F)F)c(O[C@H]4CC[C@@](C)(O)CC4)n3)cc2OCC1
API: POST /compare with I and II ; response names the item with higher solubility. State your choice using its label.
II
(II: 680 µg/mL, I: 120 µg/mL)

The measured values listed here are drawn from patent EP4592286A1.
